assay: 28-day repeat-dose toxicity study, toxicokinetics of AMXT 1501 dicaprate; format: in vivo, beagle dogs; conditions: both sexes, beagle, dog, plasma, po, 16 mg/kg/day, 16 mg/kg/day PO, DFMO 200 mg/kg/day, Day 1, M+F combined; read-out: Tmax Mean
PROPERTY_NAME: Tmax
Reply with the number, then its unit.

Enquiry: Please report the recorded Tmax for CCCCCCCCCCCCCCCC(=O)NCCCC[C@@H](N)C(=O)NCCCNCCCCNCCCN [AMXT 1501 dicaprate] .
Return: 8.4 h

====

test: 28-day repeat-dose toxicity study, toxicokinetics of AMXT 1501 dicaprate; format: in vivo, beagle dogs; conditions: both sexes, beagle, dog, plasma, po, 16 mg/kg/day, 16 mg/kg/day PO, DFMO 50 mg/kg/day, Day 28, M+F combined; read-out: Tmax Mean
PROPERTY_NAME: Tmax (h)
# value in h; strip the unit string

Enquiry: Please give the measured Tmax for this compound: CCCCCCCCCCCCCCCC(=O)NCCCC[C@@H](N)C(=O)NCCCNCCCCNCCCN [AMXT 1501 dicaprate]
Return: 6.3

====

test: 28-day repeat-dose toxicity study, toxicokinetics of AMXT 1501 dicaprate; assay type: in vivo, beagle dogs; settings: both sexes, beagle, dog, plasma, po, 16 mg/kg/day, 16 mg/kg/day PO, DFMO 50 mg/kg/day, Day 28, M+F combined; read-out: Tmax Median
PROPERTY_NAME: Tmax (h)
Please state the figure in h; there is no need to write the unit.

Enquiry: Which value of Tmax has been reported for CCCCCCCCCCCCCCCC(=O)NCCCC[C@@H](N)C(=O)NCCCNCCCCNCCCN [AMXT 1501 dicaprate] in the records?
Return: 6

====

test: 28-day repeat-dose toxicity study, toxicokinetics of AMXT 1501 dicaprate; assay type: in vivo, beagle dogs; conditions: both sexes, beagle, dog, plasma, po, 16 mg/kg/day, 16 mg/kg/day PO, DFMO 0, Day 28, M+F combined; read-out: Tmax Median
PROPERTY_NAME: Tmax (h)
// return numeric value only (unit: h, not printed)

Enquiry: Record request: Tmax value, item CCCCCCCCCCCCCCCC(=O)NCCCC[C@@H](N)C(=O)NCCCNCCCCNCCCN [AMXT 1501 dicaprate]
Return: 6

====

experiment: 5 day repeat oral dosing PK of AMXT 1501 dicaprate; type: in vivo, beagle dogs; settings: both sexes, beagle, dog, plasma, oral, Day 1, animals where it could be estimated; read-out: mean Day 1 t1/2 values, range across groups
PROPERTY_NAME: half-life

Enquiry: Reported half-life, compound CCCCCCCCCCCCCCCC(=O)NCCCC[C@@H](N)C(=O)NCCCNCCCCNCCCN [AMXT 1501 dicaprate] : ____
Return: 7.99 to 23.2 h

====

assay: 28-day repeat-dose toxicity study, toxicokinetics of AMXT 1501 dicaprate; format: in vivo, beagle dogs; settings: both sexes, beagle, dog, plasma, po, 8 mg/kg/day, 8 mg/kg/day PO, DFMO 0, Day 28, M+F combined; read-out: AUC0-24 hr Mean
PROPERTY_NAME: AUC(0-t) (ng·h/mL)
Please reply with the bare figure in ng·h/mL and do not write the unit itself.

Enquiry: # lookup: AUC(0-t) of CCCCCCCCCCCCCCCC(=O)NCCCC[C@@H](N)C(=O)NCCCNCCCCNCCCN [AMXT 1501 dicaprate]
Return: 2210

====

test: Pharmacokinetic analysis of AMXT 1501 salt forms, single oral tablet dose; assay type: in vivo, beagle dogs; conditions: beagle, dog, plasma, po, 16 mg/kg, single PO dose 16.0 mg/kg (2 x 80 mg tablets), plasma AMXT 1501; read-out: Cmax Mean
PROPERTY_NAME: Cmax (ng/mL)
Kindly answer with a numeric value in ng/mL, unit omitted.

Enquiry: // query Cmax value for entry CCCCCCCCCCCCCCCC(=O)NCCCC[C@@H](N)C(=O)NCCCNCCCCNCCCN [AMXT 1501 dicaprate]
Return: 276

====

experiment: 28-day repeat-dose toxicity study, toxicokinetics of AMXT 1501 dicaprate; format: in vivo, beagle dogs; settings: both sexes, beagle, dog, plasma, po, 16 mg/kg/day, 16 mg/kg/day PO, DFMO 0, Day 1, M+F combined; read-out: Tmax Median
PROPERTY_NAME: Tmax (h)
All answers are understood in h, so give the number only.

Enquiry: What value of measured Tmax is listed for CCCCCCCCCCCCCCCC(=O)NCCCC[C@@H](N)C(=O)NCCCNCCCCNCCCN [AMXT 1501 dicaprate] ?
Return: 6

====

assay: 28-day repeat-dose toxicity study, toxicokinetics of AMXT 1501 dicaprate; assay type: in vivo, beagle dogs; details: both sexes, beagle, dog, plasma, po, 32 mg/kg/day, 32 mg/kg/day PO, DFMO 0, Day 28, M+F combined; read-out: AUC0-24 hr Median
PROPERTY_NAME: AUC(0-t) (ng·h/mL)
Answer in ng·h/mL, number only, no unit symbol.

Enquiry: Give the measured AUC(0-t) of CCCCCCCCCCCCCCCC(=O)NCCCC[C@@H](N)C(=O)NCCCNCCCCNCCCN [AMXT 1501 dicaprate] .
Return: 8760

====

assay: 5 day repeat oral dosing PK of AMXT 1501 dicaprate; format: in vivo, beagle dogs; conditions: both sexes, beagle, dog, plasma, po, 32 mg/kg, 32 mg/kg PO, Day 1, group mean; read-out: Tmax Mean
PROPERTY_NAME: Tmax (h)
Hi! Could you send only the number? It should be in h, unit omitted.

Enquiry: Reported Tmax, molecule CCCCCCCCCCCCCCCC(=O)NCCCC[C@@H](N)C(=O)NCCCNCCCCNCCCN [AMXT 1501 dicaprate] : ____
Return: 5.33

====

experiment: 5 day repeat oral dosing PK of AMXT 1501 dicaprate; type: in vivo, beagle dogs; settings: both sexes, beagle, dog, plasma, po, 16 mg/kg, 16 mg/kg PO once daily, Day 5, group mean; read-out: Tmax Mean
PROPERTY_NAME: Tmax (h)
Give the value in h but do not write h after it.

Enquiry: What Tmax value was documented for this compound, CCCCCCCCCCCCCCCC(=O)NCCCC[C@@H](N)C(=O)NCCCNCCCCNCCCN [AMXT 1501 dicaprate] ?
Return: 8

====

assay: 5 day repeat oral dosing PK of AMXT 1501 dicaprate; format: in vivo, beagle dogs; details: both sexes, beagle, dog, plasma, po, 8 mg/kg, 8 mg/kg PO, Day 1, group mean; read-out: AUC0-t Mean
PROPERTY_NAME: AUC(0-t) (ng·h/mL)
Numeric answer only, unit ng·h/mL assumed.

Enquiry: Fill blank: measured AUC(0-t) of the compound CCCCCCCCCCCCCCCC(=O)NCCCC[C@@H](N)C(=O)NCCCNCCCCNCCCN [AMXT 1501 dicaprate] is ____.
Return: 2030

====

assay: 28-day repeat-dose toxicity study, toxicokinetics of AMXT 1501 dicaprate; type: in vivo, beagle dogs; conditions: both sexes, beagle, dog, plasma, po, 32 mg/kg/day, 32 mg/kg/day PO, DFMO 0, Day 28, M+F combined; read-out: Tmax Mean
PROPERTY_NAME: Tmax (h)
Answer format: numeric, h implied, no suffix.

Enquiry: Which Tmax is reported for this molecule? CCCCCCCCCCCCCCCC(=O)NCCCC[C@@H](N)C(=O)NCCCNCCCCNCCCN [AMXT 1501 dicaprate]
Return: 4.3

====

test: 5 day repeat oral dosing PK of AMXT 1501 dicaprate; assay type: in vivo, beagle dogs; details: both sexes, beagle, dog, plasma, po, 16 mg/kg, 16 mg/kg PO once daily, Day 5, group mean; read-out: AUC0-t Mean
PROPERTY_NAME: AUC(0-t) (ng·h/mL)
Give the number; ng·h/mL is assumed, so skip it.

Enquiry: # AUC(0-t) lookup, item CCCCCCCCCCCCCCCC(=O)NCCCC[C@@H](N)C(=O)NCCCNCCCCNCCCN [AMXT 1501 dicaprate]
Return: 8890

====

assay: 28-day repeat-dose toxicity study, toxicokinetics of AMXT 1501 dicaprate; assay type: in vivo, beagle dogs; conditions: both sexes, beagle, dog, plasma, po, 32 mg/kg/day, 32 mg/kg/day PO, DFMO 0, Day 28, M+F combined; read-out: t1/2 Mean (converted)
PROPERTY_NAME: half-life (h)
Quick note: give the figure in h, leave out the unit.

Enquiry: What value of half-life has been recorded for this entry: CCCCCCCCCCCCCCCC(=O)NCCCC[C@@H](N)C(=O)NCCCNCCCCNCCCN [AMXT 1501 dicaprate]
Return: 48.7

====

assay: 28-day repeat-dose toxicity study, toxicokinetics of AMXT 1501 dicaprate; format: in vivo, beagle dogs; details: both sexes, beagle, dog, plasma, po, 16 mg/kg/day, 16 mg/kg/day PO, DFMO 50 mg/kg/day, Day 28, M+F combined; read-out: t1/2 Mean (converted)
PROPERTY_NAME: half-life (h)
Respond with the bare value in h.

Enquiry: Reported half-life for CCCCCCCCCCCCCCCC(=O)NCCCC[C@@H](N)C(=O)NCCCNCCCCNCCCN [AMXT 1501 dicaprate] : what is it?
Return: 52.8

Data credit: patent US12364709B2
